Origin of the recorded values: patent US10407445B2

- PROTOCOL_DESCRIPTION: IV and PO single dose pharmacokinetic studies in SD rats
- Type: in vivo
- EXPERIMENTAL_PARAMETERS: Sprague-Dawley, rat, plasma, male SD rats, oral gavage 20 mg/kg vs IV bolus 2 mg/kg
bioavailability by entry:
A number alone suffices; assume %.

// worked examples, bioavailability included
COC(=O)N[C@H](C(=O)N1CCC[C@H]1c1ncc(-c2ccc(-c3ccc4c(ccc5nc([C@@H]6C[C@]7(CCOC7)CN6C(=O)[C@@H](NC(=O)OC)C(C)C)[nH]c54)c3)cc2)[nH]1)C(C)C
8.6
COC(=O)N[C@H](C(=O)N1C[C@]2(CCCOC2)C[C@H]1c1ncc(-c2ccc(-c3ccc4c(ccc5nc([C@@H]6C[C@@H]7COC[C@@H]7N6C(=O)[C@@H](NC(=O)OC)C(C)C)[nH]c54)c3)cc2)[nH]1)C(C)C
1.1
COC(=O)N[C@H](C(=O)N1C[C@]2(CCCOC2)C[C@H]1c1nc2ccc3cc(-c4ccc5c(ccc6nc([C@@H]7C[C@@H]8CCCC[C@@H]8N7C(=O)[C@@H](NC(=O)OC)C(C)C)[nH]c65)c4)ccc3c2[nH]1)C(C)C
5.5

Note: attention shifts to another entry.
Input: Dear colleague, please send me the reported bioavailability for COC(=O)N[C@H](C(=O)N1C[C@]2(CCCOC2)C[C@H]1c1ncc(-c2ccc(-c3ccc4c(ccc5nc([C@@H]6CCCN6C(=O)[C@@H](NC(=O)OC)C(C)C)[nH]c54)c3)cc2)[nH]1)C(C)C when you can.
Output: 7
